# Test protocol: Clearance in rat
# Type: ADME, organism-based
# Run parameters: in vivo

Structure smiles string: CCC(CC)CC1(O)CCN(C(=O)Nc2cc(Oc3ccc(F)cc3)cc(Oc3ccc(C(=O)O)cc3)c2)CC1
clearance (mL/min/kg): 10

###

# Tested target: Sphingosine 1-phosphate receptor 5 (Homo sapiens, UniProt Q9H228)
# Sequence (Q9H228 whole entry): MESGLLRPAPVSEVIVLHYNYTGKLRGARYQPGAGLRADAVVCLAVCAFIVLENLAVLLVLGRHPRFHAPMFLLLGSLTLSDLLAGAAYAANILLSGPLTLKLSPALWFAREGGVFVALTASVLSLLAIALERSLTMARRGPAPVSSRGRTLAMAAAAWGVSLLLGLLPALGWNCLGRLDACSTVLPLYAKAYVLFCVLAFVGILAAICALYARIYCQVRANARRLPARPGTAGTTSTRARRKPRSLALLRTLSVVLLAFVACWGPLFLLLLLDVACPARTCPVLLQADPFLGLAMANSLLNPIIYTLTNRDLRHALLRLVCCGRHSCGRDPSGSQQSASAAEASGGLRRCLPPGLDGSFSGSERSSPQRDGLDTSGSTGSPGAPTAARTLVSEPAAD
# Test protocol: Displacement of [33P]-S1P from human S1P5 receptor expressed on CHO-K1 cell membranes after 60 mins by scintillation counting method
pIC50: −log10 of the molar value.

Compound: CC(C)CC1(O)CCN(C(=O)Nc2cc(Oc3ccc(F)cc3)cc(Oc3ccc(C(C)(C)C(=O)O)cc3)c2)C1 (racemic)
pIC50: < 5.00

###

# Test protocol: Oral bioavailability in rat at 1 mg/kg
# Type: ADME, organism-based
# Run parameters: in vivo

Compound: CC(C)CC1(O)CCN(C(=O)Nc2cc(Oc3ccc(F)cc3)cc(Oc3ccc(C(C)(C)C(=O)O)cc3)c2)C1 (racemic)
bioavailability [%]: 64.4
--
Compound: CC(C)(C(=O)O)c1ccc(Oc2cc(NC(=O)N3CCC(O)(C4CCCC4)C3)cc(Oc3ccc(F)cc3)c2)cc1 (racemic)
bioavailability [%]: 32

###

# Test protocol: Cmax in rat at 1 mg/kg, po
# Type: ADME, organism-based
# Set-up: dose 1 mg/kg, route oral
# Run parameters: in vivo
Quantity: Cmax (ng/mL)

Compound: CC(C)(C(=O)O)c1ccc(Oc2cc(NC(=O)N3CCC(O)(C4CCCC4)C3)cc(Oc3ccc(F)cc3)c2)cc1 (racemic)
Quantity: Cmax
Endpoint result: 484
//
Compound: CC(C)CC1(O)CCN(C(=O)Nc2cc(Oc3ccc(C(=O)O)cc3)cc(Oc3ccc(F)c(F)c3)c2)CC1
Quantity: Cmax
Endpoint result: 12
//
Compound: CC(C)CC1(O)CCN(C(=O)Nc2cc(Oc3ccc(F)cc3)cc(Oc3ccc(CC(=O)O)cc3)c2)CC1
Quantity: Cmax
Endpoint result: 127
//
Compound: CC(C)CC1(O)CCN(C(=O)Nc2cc(Oc3ccc(F)cc3)cc(Oc3ccc(C(C)(C)C(=O)O)cc3)c2)C1 (racemic)
Quantity: Cmax
Endpoint result: 1310
//
Compound: CC(C)CC1(O)CCN(C(=O)Nc2cc(Oc3ccc(F)cc3)cc(Oc3ccc(C(C)(C)C(=O)O)cc3)c2)CC1
Quantity: Cmax
Endpoint result: 88
//
Compound: CC(C)CC1(O)CCN(C(=O)Nc2cc(Oc3ccc(F)cc3)cc(Oc3ccc(C(=O)O)cc3F)c2)CC1
Quantity: Cmax
Endpoint result: 15
//
Compound: CC(C)CC1(O)CCN(C(=O)Nc2cc(Oc3ccc(C(=O)O)cc3)cc(Oc3ccc(F)cc3F)c2)CC1
Quantity: Cmax
Endpoint result: 10
//
Compound: CCC(CC)CC1(O)CCN(C(=O)Nc2cc(Oc3ccc(F)cc3)cc(Oc3ccc(C(=O)O)cc3)c2)CC1
Quantity: Cmax
Endpoint result: 3.3
//
Compound: CC(C)CC1(O)CCN(C(=O)Nc2cc(Oc3ccc(F)cc3)cc(Oc3ccc(C4(C(=O)O)CC4)cc3)c2)CC1
Quantity: Cmax
Endpoint result: 62
//
Compound: O=C(O)c1ccc(Oc2cc(NC(=O)N3CCC(O)(c4ccc(F)cc4)CC3)cc(Oc3ccc(F)cc3)c2)cc1
Quantity: Cmax
Endpoint result: 11
//
Compound: CC(C)CC1(O)CCN(C(=O)Nc2cc(Oc3ccc(F)cc3)cc(Oc3ccc(C(=O)O)c(F)c3)c2)CC1
Quantity: Cmax
Endpoint result: 22
//
Compound: CC(C)CC1(O)CN(C(=O)Nc2cc(Oc3ccc(F)cc3)cc(Oc3ccc(C(C)(C)C(=O)O)cc3)c2)C1
Quantity: Cmax
Endpoint result: 396
//
Compound: COc1cc(Oc2cc(NC(=O)N3CCC(O)(CC(C)C)CC3)cc(Oc3ccc(F)cc3)c2)ccc1C(=O)O
Quantity: Cmax
Endpoint result: 29
//
Compound: CC(C)CC1(O)CCN(C(=O)Nc2cc(Oc3ccc(F)cc3)cc(Oc3ccc(C(=O)O)c(Cl)c3)c2)CC1
Quantity: Cmax
Endpoint result: 15
//
Compound: CC(C)CC1(O)CCN(C(=O)Nc2cc(Oc3ccc(F)cc3)cc(Oc3ccc(C(=O)O)cc3)c2)CC1
Quantity: Cmax
Endpoint result: 18

###

# Tested target: UniProt O95977
# Sequence (O95977 whole entry): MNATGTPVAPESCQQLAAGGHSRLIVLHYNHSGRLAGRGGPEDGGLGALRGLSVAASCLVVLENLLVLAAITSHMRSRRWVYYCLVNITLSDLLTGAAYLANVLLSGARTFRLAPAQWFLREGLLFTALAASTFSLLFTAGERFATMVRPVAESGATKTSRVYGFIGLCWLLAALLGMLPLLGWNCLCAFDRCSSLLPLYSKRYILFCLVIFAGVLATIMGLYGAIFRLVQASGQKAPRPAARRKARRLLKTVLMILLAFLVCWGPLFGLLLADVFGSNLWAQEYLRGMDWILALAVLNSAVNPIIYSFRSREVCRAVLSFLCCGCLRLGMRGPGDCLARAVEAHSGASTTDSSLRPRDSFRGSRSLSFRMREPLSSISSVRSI
# Test protocol: Displacement of [33P]-S1P from human S1P4 receptor expressed on CHO-K1 cell membranes after 60 mins by scintillation counting method

Molecule: CC(C)CC1(O)CCN(C(=O)Nc2cc(Oc3ccc(F)cc3)cc(Oc3ccc(C(C)(C)C(=O)O)cc3)c2)C1 (racemic)
IC50: > 10 µM

###

Listing of recorded AUC(0-t) at 24 h by entry.
# Test protocol: AUC (0 to 24 hrs) in rat at 1 mg/kg, po
# Type: ADME, organism-based
# Design: dose 1 mg/kg, time < 24 hr, route oral
# Run parameters: in vivo
Quantity: AUC(0-t) at 24 h

Structure smiles string: CC(C)CC1(O)CCN(C(=O)Nc2cc(Oc3ccc(F)cc3)cc(Oc3ccc(C4(C(=O)O)CC4)cc3)c2)CC1
Endpoint result: 320 ng·h/mL
//
Structure smiles string: COc1cc(Oc2cc(NC(=O)N3CCC(O)(CC(C)C)CC3)cc(Oc3ccc(F)cc3)c2)ccc1C(=O)O
Endpoint result: 155 ng·h/mL
//
Structure smiles string: CC(C)CC1(O)CCN(C(=O)Nc2cc(Oc3ccc(F)cc3)cc(Oc3ccc(C(=O)O)cc3F)c2)CC1
Endpoint result: 83 ng·h/mL
//
Structure smiles string: CC(C)CC1(O)CCN(C(=O)Nc2cc(Oc3ccc(F)cc3)cc(Oc3ccc(C(=O)O)c(F)c3)c2)CC1
Endpoint result: 92 ng·h/mL
//
Structure smiles string: CC(C)CC1(O)CCN(C(=O)Nc2cc(Oc3ccc(F)cc3)cc(Oc3ccc(C(C)(C)C(=O)O)cc3)c2)CC1
Endpoint result: 390 ng·h/mL
